Data provenance is paper PMC6940897.

Assay: MTT cytotoxicity on the HIV host cells
Assay type: cell-based
Condition Set: human, U373-CD4-CCR5 cells, MTT, 48 h, n=2; tested up to 100 µM (compound 9 up to 500 µM); read-out: Cytotoxic IC50 ± SEM
# IC50 at 48 h per entry

- Molecule: "O=C1CCC(O)(c2cc(=O)c3c(O)cc(O)cc3o2)CC1 [Compound 9, Tetrahydroprotoapigenone]"
  IC50 at 48 h: "> 500 µM"
- Molecule: "COC1(c2cc(=O)c3c(O)cc(O)cc3o2)CCC(=O)CC1"
  IC50 at 48 h: "> 100 µM"
- Molecule: "CCOC1(c2cc(=O)c3c(O)cc(O)cc3o2)CCC(=O)CC1"
  IC50 at 48 h: "> 100 µM"
- Molecule: "CCCCOC1(c2cc(=O)c3c(O)cc(O)cc3o2)CCC(=NO)CC1 (centres unmarked)"
  IC50 at 48 h: "27 µM"
- Molecule: "O=c1cc(C2(O)CCC(=NO)CC2)oc2cc(O)cc(O)c12 (centres unmarked)"
  IC50 at 48 h: "> 100 µM"
- Molecule: "C#CCOC1(c2cc(=O)c3c(O)cc(O)cc3o2)C=CC(=NO)CC1OC (centres unmarked)"
  IC50 at 48 h: "~89.5 µM"
- Molecule: "CC(C)OC1(c2cc(=O)c3c(O)cc(O)cc3o2)CCC(=O)CC1"
  IC50 at 48 h: "> 100 µM"
- Molecule: "CC(C)OC1(c2cc(=O)c3c(O)cc(O)cc3o2)C=CC(=O)C=C1"
  IC50 at 48 h: "2.09 µM"

###

Assay: MTT cytotoxicity assay on P3HR1 cells
Format: cell-based
Condition Set: human, 24 h

- Molecule: "O=C1C=CC(O)(c2cc(=O)c3c(O)cc(O)cc3o2)C=C1 [Compound 2, protoapigenone]"
  IC50 at 24 h / µM: 3.86
- Molecule: "CC(C)OC1(c2cc(=O)c3c(O)cc(O)cc3o2)C=CC(=O)C=C1 [Compound 6, protoapigenone 1′-O-isopropyl ether]"
  IC50 at 24 h / µM: 34.1
- Molecule: "C#CCOC1(c2cc(=O)c3c(O)cc(O)cc3o2)C=CC(=O)C=C1 [Compound 8, protoapigenone 1′-O-propargyl ether]"
  IC50 at 24 h / µM: 4.93
- Molecule: "CCCCOC1(c2cc(=O)c3c(O)cc(O)cc3o2)C=CC(=O)C=C1 [Compound 7]"
  IC50 at 24 h / µM: 2.04

###

Test system: EBV lytic cycle (expression of EBV Rta)
Assay: Inhibition of EBV lytic cycle: immunoblot of Rta expression in P3HR1 cells after lytic induction
Type: cell-based, Epstein–Barr Virus
Condition Set: human, cytotoxic IC50 (P3HR1) / anti-EBV Rta IC50, read-out: Selectivity of the anti-EBV vs. cytotoxic effect (ratio of the corresponding IC50 values)

- Compound: "CCCCOC1(c2cc(=O)c3c(O)cc(O)cc3o2)C=CC(=O)C=C1"
  selectivity ratio at 24 h: 9.8
- Compound: "C#CCOC1(c2cc(=O)c3c(O)cc(O)cc3o2)C=CC(=O)C=C1"
  selectivity ratio at 24 h: 17.3
- Compound: "O=C1C=CC(O)(c2cc(=O)c3c(O)cc(O)cc3o2)C=C1"
  selectivity ratio at 24 h: 30.1
- Compound: "CC(C)OC1(c2cc(=O)c3c(O)cc(O)cc3o2)C=CC(=O)C=C1"
  selectivity ratio at 24 h: 73
